Target or system GSK3β (Homo sapiens, UniProt P49841): recorded pIC50 listed per item.
pIC50: −log10 of the molar value.
observed_property: pIC50

compound	pIC50
N#Cc1ccc(-c2ccc(Cl)cc2Cl)nc1N1CCCC(Nc2ccc(C(=O)C(F)(F)F)c(N)n2)C1 (single isomer, unassigned) [Example Ent-B-2]	8.30

(A) COc1ccccc1-c1ccc(C(=O)N2CCN(C(C)C)CC2)c(N2CCCC(Nc3ccc(C(=O)C(F)(F)F)c(N)n3)C2)n1 (single isomer, unassigned) [Example Ent-B-12]
(B) N#Cc1ccc(NC2CCCN(c3nc(-c4ccc(Cl)cc4Cl)ccc3C#N)C2)nc1 (stereo not drawn) [Example 7]
In: A or B : whose pIC50 is greater? Write down the label attached to your selection.
Out: A
(A: 8.20, B: 7.92)
